Tested on: HepG2
Experiment: Induction of LDLR mRNA expression in human HepG2 cells after 12 hrs by RT-PCR assay relative to untreated control
Assay type: functional
Would you kindly list fold change (FC) for each of these compounds?
Lab note: jot down the number only; don't add units.

Indicate the recorded fold change (FC) value for this compound: "COc1cc2c[n+]3c(c(Cc4ccccc4)c2cc1OC)-c1cc2c(cc1CC3)OCO2.[Br-]"
1

Indicate the recorded fold change (FC) value for this compound: "CCCCCCc1c2[n+](cc3cc(OC)c(OC)cc13)CCc1cc3c(cc1-2)OCO3.[Cl-]"
1.1

Indicate the recorded fold change (FC) value for this compound: "COc1cc2cc3[n+](cc2cc1OC)CCc1cc2c(cc1-3)OCO2.[Cl-]"
3.5

Indicate the recorded fold change (FC) value for this compound: "CCCOc1cc2c(cc1OCCC)-c1cc3ccc(OC)c(OC)c3c[n+]1CC2.[Br-]"
0.9

Indicate the recorded fold change (FC) value for this compound: CCOC(=O)C[N+]12CCc3cc4c(cc3C1Cc1cc(OC)c(OC)cc1C2)OCO4.[Br-] (stereo unspecified)
1

Indicate the recorded fold change (FC) value for this compound: CC[N+]12CCc3cc4c(cc3C1Cc1cc(OC)c(OC)cc1C2)OCO4.[Br-] (stereo unspecified)
0.8

Indicate the recorded fold change (FC) value for this compound: COc1cc2c(cc1OC)C[N+]1(C)CCc3cc4c(cc3C1C2)OCO4.[I-] (stereo unspecified)
0.9

Indicate the recorded fold change (FC) value for this compound: "COc1ccc2cc3[n+](cc2c1OC)CCc1cc(OCc2ccccc2)c(OCc2ccccc2)cc1-3.[Br-]"
1

Indicate the recorded fold change (FC) value for this compound: COc1cc2c(cc1O)-c1cc3ccc(OC)c(OC)c3c[n+]1CC2.[I-] [COLUMBAMINE IODIDE]
1

Indicate the recorded fold change (FC) value for this compound: "CCCCCCc1c2[n+](cc3c(OC)c(OC)ccc13)CCc1cc3c(cc1-2)OCO3.[Cl-]"
1

Indicate the recorded fold change (FC) value for this compound: COc1cc2c(cc1OC)C[N+]1(Cc3ccccc3)CCc3cc4c(cc3C1C2)OCO4.[Br-] (stereo unspecified)
0.9

###

Experiment: Elimination half life in po dosed human
Type: ADME, organism-based
Settings: in vivo, read-out: beta t1/2 (converted)
readoutLabel: half-life

Indicate the recorded half-life value for this compound: COc1ccc2cc3[n+](cc2c1OC)CCc1cc2c(cc1-3)OCO2.[Cl-] [BERBERINE CHLORIDE]
2.94 h

###

Would you kindly list fold change (FC) for each of these molecules?
System: HepG2
Test: Induction of LDLR mRNA expression in human HepG2 cells after 12 hrs by RT-PCR assay relative to untreated control
Format: functional
Lab note: jot down the number only; don't add units.

Provide fold change (FC), recorded with HepG2, of CCCC[N+]12CCc3cc4c(cc3C1Cc1ccc(OC)c(OC)c1C2)OCO4.[Br-] (stereo not given)
1.1

Provide fold change (FC), recorded with HepG2, of "CCc1c2[n+](cc3c(OC)c(OC)ccc13)CCc1cc3c(cc1-2)OCO3.[Cl-]"
1.04

Provide fold change (FC), recorded with HepG2, of "CCCCc1c2[n+](cc3cc(OC)c(OC)cc13)CCc1cc3c(cc1-2)OCO3.[Cl-]"
0.9

Provide fold change (FC), recorded with HepG2, of CCC[N+]12CCc3cc4c(cc3C1Cc1ccc(OC)c(OC)c1C2)OCO4.[I-] (stereo not given)
1.2

Provide fold change (FC), recorded with HepG2, of "COc1ccc2c(Cc3ccccc3)c3[n+](cc2c1OC)CCc1cc2c(cc1-3)OCO2.[Br-]"
1.4

Provide fold change (FC), recorded with HepG2, of "CCOc1cc2c(cc1O)-c1cc3ccc(OC)c(OC)c3c[n+]1CC2.[Br-]"
0.9

Provide fold change (FC), recorded with HepG2, of "CCCc1c2[n+](cc3c(OC)c(OC)ccc13)CCc1cc3c(cc1-2)OCO3.[Cl-]"
0.9

Provide fold change (FC), recorded with HepG2, of COc1ccc2c(c1OC)C[N+]1(C)CCc3cc4c(cc3C1C2)OCO4.[I-] (stereo not given)
1.1

Provide fold change (FC), recorded with HepG2, of "COc1ccc2c(C)c3[n+](cc2c1OC)CCc1cc2c(cc1-3)OCO2.[Cl-]"
1.1

Provide fold change (FC), recorded with HepG2, of CCC[N+]12CCc3cc4c(cc3C1Cc1cc(OC)c(OC)cc1C2)OCO4.[I-] (stereo not given)
0.9

Provide fold change (FC), recorded with HepG2, of CCOC(=O)C[N+]12CCc3cc4c(cc3C1Cc1ccc(OC)c(OC)c1C2)OCO4.[Br-] (stereo not given)
0.8

Provide fold change (FC), recorded with HepG2, of COc1ccc2c(c1OC)C[N+]1(Cc3ccccc3)CCc3cc4c(cc3C1C2)OCO4.[Br-] (stereo not given)
1.1

Provide fold change (FC), recorded with HepG2, of "COc1ccc2c(c1OC)CN1CCc3cc4c(cc3[C@@H]1C2)OCO4"
1

Provide fold change (FC), recorded with HepG2, of CC[N+]12CCc3cc4c(cc3C1Cc1ccc(OC)c(OC)c1C2)OCO4.[Br-] (stereo not given)
1

Provide fold change (FC), recorded with HepG2, of COc1ccc2c(c1OC)C[N+]1(CCO)CCc3cc4c(cc3C1C2)OCO4.[Br-] (stereo not given)
1.2

Provide fold change (FC), recorded with HepG2, of "COc1cc2c(cc1OC)-c1cc3ccc(OC)c(OC)c3c[n+]1CC2.[I-]"
0.8

Provide fold change (FC), recorded with HepG2, of COc1cc2c(cc1OC)CN1CCc3cc4c(cc3C1C2)OCO4 (stereo not given)
1.3

Provide fold change (FC), recorded with HepG2, of "COc1cc2c[n+]3c(c(C)c2cc1OC)-c1cc2c(cc1CC3)OCO2.[Cl-]"
0.9

Provide fold change (FC), recorded with HepG2, of "CCCCc1c2[n+](cc3c(OC)c(OC)ccc13)CCc1cc3c(cc1-2)OCO3.[Cl-]"
0.9

Provide fold change (FC), recorded with HepG2, of COc1ccc2cc3[n+](cc2c1OC)CCc1cc2c(cc1-3)OCO2.[Cl-] [BERBERINE CHLORIDE]
2.2
